- study_system: ALK C1156Y mutant (Homo sapiens, UniProt Q9UM73, C1156Y)
- Sequence (Q9UM73 19-1620 C1156Y): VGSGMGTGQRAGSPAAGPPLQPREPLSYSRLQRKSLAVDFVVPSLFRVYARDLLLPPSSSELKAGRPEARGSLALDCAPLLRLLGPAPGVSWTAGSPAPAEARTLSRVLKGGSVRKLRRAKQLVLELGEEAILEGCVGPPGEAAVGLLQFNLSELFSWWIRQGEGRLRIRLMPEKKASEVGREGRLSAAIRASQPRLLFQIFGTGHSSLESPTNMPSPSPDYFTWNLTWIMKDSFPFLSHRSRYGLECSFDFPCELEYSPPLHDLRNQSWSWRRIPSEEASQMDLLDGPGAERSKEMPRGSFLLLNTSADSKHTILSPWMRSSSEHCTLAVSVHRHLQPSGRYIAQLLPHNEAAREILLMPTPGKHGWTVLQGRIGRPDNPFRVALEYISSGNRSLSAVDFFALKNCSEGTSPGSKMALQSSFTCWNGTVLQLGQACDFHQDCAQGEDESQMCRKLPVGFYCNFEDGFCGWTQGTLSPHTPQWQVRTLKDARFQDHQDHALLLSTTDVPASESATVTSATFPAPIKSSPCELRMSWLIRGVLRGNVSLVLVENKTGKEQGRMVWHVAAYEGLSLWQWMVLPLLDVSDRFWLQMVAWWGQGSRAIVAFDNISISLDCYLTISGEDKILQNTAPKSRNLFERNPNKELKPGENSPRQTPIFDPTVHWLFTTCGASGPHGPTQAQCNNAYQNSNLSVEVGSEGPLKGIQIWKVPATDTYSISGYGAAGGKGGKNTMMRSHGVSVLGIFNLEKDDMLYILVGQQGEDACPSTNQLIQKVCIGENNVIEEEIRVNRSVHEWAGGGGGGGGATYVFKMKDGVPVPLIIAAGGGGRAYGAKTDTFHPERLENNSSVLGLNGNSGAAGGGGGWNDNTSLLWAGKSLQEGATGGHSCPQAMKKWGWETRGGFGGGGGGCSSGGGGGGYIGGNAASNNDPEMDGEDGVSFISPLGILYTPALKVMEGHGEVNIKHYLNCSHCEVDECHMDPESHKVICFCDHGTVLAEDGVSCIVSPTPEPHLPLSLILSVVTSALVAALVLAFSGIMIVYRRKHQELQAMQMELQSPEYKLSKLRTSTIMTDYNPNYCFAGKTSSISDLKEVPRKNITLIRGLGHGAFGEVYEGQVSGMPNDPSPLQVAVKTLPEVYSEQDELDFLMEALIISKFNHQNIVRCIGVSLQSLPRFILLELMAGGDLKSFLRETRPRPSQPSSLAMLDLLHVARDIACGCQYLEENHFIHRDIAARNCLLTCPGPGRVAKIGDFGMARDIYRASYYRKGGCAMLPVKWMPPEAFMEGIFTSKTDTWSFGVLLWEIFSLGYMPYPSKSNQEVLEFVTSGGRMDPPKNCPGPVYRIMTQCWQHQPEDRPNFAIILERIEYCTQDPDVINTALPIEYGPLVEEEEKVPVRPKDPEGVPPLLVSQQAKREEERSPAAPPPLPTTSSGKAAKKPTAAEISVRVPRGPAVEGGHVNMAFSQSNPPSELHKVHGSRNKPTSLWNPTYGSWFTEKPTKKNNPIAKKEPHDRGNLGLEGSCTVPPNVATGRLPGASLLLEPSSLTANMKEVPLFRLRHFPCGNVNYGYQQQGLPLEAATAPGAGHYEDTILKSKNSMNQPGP
- protocol_text: Biochemical kinase assay
pIC50: −log10 of the molar value.
endpoint_name: pIC50

// query State the recorded pIC50 for this entry: C[C@@H]1CN(C(=O)c2ccc(NC(=O)c3cc(O[C@H](C)c4c(Cl)ccc(F)c4Cl)c(N)nn3)cc2)C[C@H](C)N1 [ensartinib]
// result > 9.40

* * *

- study_system: c-MET (Homo sapiens)
- protocol_text: Biochemical kinase assay
endpoint_name: IC50

// query State the recorded IC50 for this entry: C[C@@H]1CN(C(=O)c2ccc(NC(=O)c3cc(O[C@H](C)c4c(Cl)ccc(F)c4Cl)c(N)nn3)cc2)C[C@H](C)N1
// result 1 to 10 nM

* * *

- study_system: ALK L1196M mutant (Homo sapiens, UniProt Q9UM73, L1196M)
- protocol_text: Biochemical kinase assay
endpoint_name: IC50

// query State the recorded IC50 for this entry: C[C@@H]1CN(C(=O)c2ccc(NC(=O)c3cc(O[C@H](C)c4c(Cl)ccc(F)c4Cl)c(N)nn3)cc2)C[C@H](C)N1
// result < 400 pM

* * *

- study_system: EphB1 (Homo sapiens, UniProt P54762)
- Sequence (P54762 18-984): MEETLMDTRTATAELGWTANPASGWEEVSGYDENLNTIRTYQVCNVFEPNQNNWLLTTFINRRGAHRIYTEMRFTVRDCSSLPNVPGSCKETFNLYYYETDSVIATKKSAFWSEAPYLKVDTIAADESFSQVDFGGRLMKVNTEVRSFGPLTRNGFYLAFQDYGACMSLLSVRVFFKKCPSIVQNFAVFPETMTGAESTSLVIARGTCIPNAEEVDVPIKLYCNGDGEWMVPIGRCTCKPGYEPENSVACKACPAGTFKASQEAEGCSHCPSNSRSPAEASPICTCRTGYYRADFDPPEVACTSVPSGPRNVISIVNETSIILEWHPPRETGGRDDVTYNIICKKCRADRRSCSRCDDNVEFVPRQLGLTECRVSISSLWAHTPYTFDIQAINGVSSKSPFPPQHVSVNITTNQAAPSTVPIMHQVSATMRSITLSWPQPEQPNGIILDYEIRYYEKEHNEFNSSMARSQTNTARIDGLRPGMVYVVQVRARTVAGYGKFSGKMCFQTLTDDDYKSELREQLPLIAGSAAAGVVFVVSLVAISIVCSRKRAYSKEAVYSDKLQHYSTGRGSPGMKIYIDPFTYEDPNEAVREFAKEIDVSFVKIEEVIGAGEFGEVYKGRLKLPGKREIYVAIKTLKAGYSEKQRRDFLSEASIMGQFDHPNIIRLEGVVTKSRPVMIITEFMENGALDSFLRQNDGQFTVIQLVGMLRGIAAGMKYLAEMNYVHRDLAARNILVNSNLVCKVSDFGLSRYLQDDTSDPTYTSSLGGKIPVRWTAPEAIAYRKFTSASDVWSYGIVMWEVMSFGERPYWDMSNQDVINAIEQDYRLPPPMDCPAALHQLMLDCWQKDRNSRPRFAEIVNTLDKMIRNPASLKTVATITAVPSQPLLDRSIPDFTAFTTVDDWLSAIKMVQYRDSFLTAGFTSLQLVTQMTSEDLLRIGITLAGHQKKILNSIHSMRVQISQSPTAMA
pIC50: −log10 of the molar value.
endpoint_name: pIC50

// query What pIC50 appears in the records for this compound with EphB1 (Homo sapiens, UniProt P54762)? C[C@@H]1CN(C(=O)c2ccc(NC(=O)c3cc(O[C@H](C)c4c(Cl)ccc(F)c4Cl)c(N)nn3)cc2)C[C@H](C)N1
// result 8.00 to 9.00

* * *

- study_system: ALK F1174 mutant (Homo sapiens)
- protocol_text: Biochemical kinase assay
endpoint_name: IC50

// query State the recorded IC50 for this entry: C[C@@H]1CN(C(=O)c2ccc(NC(=O)c3cc(O[C@H](C)c4c(Cl)ccc(F)c4Cl)c(N)nn3)cc2)C[C@H](C)N1
// result < 0.4 nM

* * *

- study_system: TPM3-TRKA (Homo sapiens)
- Sequence (P04629 399-796): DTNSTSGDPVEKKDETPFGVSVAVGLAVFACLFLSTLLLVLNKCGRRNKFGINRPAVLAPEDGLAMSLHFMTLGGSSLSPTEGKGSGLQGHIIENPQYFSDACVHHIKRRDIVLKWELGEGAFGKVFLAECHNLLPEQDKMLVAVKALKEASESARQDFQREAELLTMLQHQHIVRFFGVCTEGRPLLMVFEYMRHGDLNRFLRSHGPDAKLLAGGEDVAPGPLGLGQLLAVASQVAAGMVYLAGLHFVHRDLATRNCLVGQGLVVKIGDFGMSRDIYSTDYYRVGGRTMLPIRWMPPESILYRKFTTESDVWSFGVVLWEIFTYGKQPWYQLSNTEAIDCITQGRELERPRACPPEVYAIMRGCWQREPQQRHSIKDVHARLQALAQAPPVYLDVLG
- Sequence (P06753 2-258 partner): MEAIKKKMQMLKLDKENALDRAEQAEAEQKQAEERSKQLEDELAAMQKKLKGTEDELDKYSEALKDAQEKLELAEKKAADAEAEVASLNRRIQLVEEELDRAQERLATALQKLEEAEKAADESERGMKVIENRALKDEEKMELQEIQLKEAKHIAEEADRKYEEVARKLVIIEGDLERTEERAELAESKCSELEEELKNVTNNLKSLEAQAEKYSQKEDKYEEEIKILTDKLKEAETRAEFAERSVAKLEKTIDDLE
pIC50: −log10 of the molar value.
endpoint_name: pIC50

// query What pIC50 appears in the records for this molecule with TPM3-TRKA (Homo sapiens)? C[C@@H]1CN(C(=O)c2ccc(NC(=O)c3cc(O[C@H](C)c4c(Cl)ccc(F)c4Cl)c(N)nn3)cc2)C[C@H](C)N1 [ensartinib]
// result > 9.00

* * *

- study_system: EphA2 (Homo sapiens, UniProt P29317)
- Sequence (P29317 24-976): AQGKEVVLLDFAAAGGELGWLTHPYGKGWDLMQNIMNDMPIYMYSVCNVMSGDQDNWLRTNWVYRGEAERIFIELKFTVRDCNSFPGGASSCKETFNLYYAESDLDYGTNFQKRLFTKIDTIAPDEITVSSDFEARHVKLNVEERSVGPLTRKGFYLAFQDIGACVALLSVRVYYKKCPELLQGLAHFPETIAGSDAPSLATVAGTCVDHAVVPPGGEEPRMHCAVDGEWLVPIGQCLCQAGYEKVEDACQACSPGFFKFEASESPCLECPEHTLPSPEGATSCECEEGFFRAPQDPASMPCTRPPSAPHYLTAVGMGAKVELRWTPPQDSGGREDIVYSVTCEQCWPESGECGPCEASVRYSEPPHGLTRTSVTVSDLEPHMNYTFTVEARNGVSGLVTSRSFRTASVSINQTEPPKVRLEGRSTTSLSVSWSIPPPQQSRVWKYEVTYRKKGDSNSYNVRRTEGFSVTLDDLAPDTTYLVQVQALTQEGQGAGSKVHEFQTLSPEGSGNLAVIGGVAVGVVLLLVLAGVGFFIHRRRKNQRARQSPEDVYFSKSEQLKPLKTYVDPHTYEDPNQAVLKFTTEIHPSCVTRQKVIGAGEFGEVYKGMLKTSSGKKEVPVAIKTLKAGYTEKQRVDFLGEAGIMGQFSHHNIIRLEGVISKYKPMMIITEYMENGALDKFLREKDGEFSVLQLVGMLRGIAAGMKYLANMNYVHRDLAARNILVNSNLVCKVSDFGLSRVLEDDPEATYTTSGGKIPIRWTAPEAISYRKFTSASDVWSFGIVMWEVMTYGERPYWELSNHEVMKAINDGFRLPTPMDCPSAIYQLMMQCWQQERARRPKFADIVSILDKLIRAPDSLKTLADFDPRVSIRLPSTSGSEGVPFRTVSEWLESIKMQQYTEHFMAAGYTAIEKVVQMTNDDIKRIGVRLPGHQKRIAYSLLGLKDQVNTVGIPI
pIC50: −log10 of the molar value.
endpoint_name: pIC50

// query What pIC50 appears in the records for this compound with EphA2 (Homo sapiens, UniProt P29317)? C[C@@H]1CN(C(=O)c2ccc(NC(=O)c3cc(O[C@H](C)c4c(Cl)ccc(F)c4Cl)c(N)nn3)cc2)C[C@H](C)N1 [ensartinib]
// result 8.00 to 9.00

* * *

- study_system: ALK variants
- protocol_text: Biochemical kinase assay
- condition_parameters: read-out: in vitro IC50s, all evaluated ALK variants; wild-type ALK and 17 ALK variants
pIC50: −log10 of the molar value.
endpoint_name: pIC50

// query State the recorded pIC50 for this entry: C[C@@H]1CN(C(=O)c2ccc(NC(=O)c3cc(O[C@H](C)c4c(Cl)ccc(F)c4Cl)c(N)nn3)cc2)C[C@H](C)N1 [ensartinib]
// result > 8.40

* * *

- study_system: TRKC (Homo sapiens, UniProt Q16288)
- Sequence (Q16288 32-839): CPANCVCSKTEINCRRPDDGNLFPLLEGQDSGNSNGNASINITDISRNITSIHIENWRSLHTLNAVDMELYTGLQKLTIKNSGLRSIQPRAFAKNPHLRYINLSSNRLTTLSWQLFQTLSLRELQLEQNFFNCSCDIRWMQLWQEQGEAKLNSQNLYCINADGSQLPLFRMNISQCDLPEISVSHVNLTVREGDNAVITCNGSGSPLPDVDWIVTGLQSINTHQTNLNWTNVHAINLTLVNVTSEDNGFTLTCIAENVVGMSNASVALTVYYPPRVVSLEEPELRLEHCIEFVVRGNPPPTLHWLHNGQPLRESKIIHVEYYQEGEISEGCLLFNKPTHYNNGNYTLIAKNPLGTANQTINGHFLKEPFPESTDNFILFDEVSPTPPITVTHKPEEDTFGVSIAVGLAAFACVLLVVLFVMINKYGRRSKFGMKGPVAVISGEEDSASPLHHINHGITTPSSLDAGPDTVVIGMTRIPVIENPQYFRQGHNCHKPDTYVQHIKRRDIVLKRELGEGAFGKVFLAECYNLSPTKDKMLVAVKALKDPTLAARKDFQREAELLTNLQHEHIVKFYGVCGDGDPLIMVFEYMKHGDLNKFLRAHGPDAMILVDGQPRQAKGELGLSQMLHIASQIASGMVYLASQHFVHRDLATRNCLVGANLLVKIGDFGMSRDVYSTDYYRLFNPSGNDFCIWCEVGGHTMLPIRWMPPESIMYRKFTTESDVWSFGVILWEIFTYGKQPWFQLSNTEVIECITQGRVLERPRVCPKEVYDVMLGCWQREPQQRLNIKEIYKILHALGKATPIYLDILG
pIC50: −log10 of the molar value.
endpoint_name: pIC50

// query What pIC50 appears in the records for this molecule with TRKC (Homo sapiens, UniProt Q16288)? C[C@@H]1CN(C(=O)c2ccc(NC(=O)c3cc(O[C@H](C)c4c(Cl)ccc(F)c4Cl)c(N)nn3)cc2)C[C@H](C)N1
// result > 9.00

* * *

- study_system: ALK T1151 mutant (Homo sapiens)
- protocol_text: Biochemical kinase assay
endpoint_name: IC50

// query State the recorded IC50 for this entry: C[C@@H]1CN(C(=O)c2ccc(NC(=O)c3cc(O[C@H](C)c4c(Cl)ccc(F)c4Cl)c(N)nn3)cc2)C[C@H](C)N1
// result < 0.4 nM

Sourced from paper PMC6004248
